- Tested on: MCF7
- Protocol: Antiproliferative activity against human MCF7 cells after 72 hrs by sulforhodamine B assay
- Format: functional, cell-based
- Experimental Context: MCF7, 72 h
Property Label: IC50 (µM)
Give just the number in µM; leave the unit off.

Fill in: IC50 of C/C=C1/CN(C)[C@H]2Cc3c([nH]c4ccccc34)[C@H](c3c(OC)ccc4c5c([nH]c34)[C@]3(C(=O)OC)C[C@@H]4C[C@H](CC)[C@@H]3N(CC5)C4)C[C@H]1[C@@]2(CO)C(=O)OC is ___
4.8

* * *

- Protocol: Antiproliferative activity against human KBVIN cells after 72 hrs by sulforhodamine B assay
- Type: functional, cell-based
Property Label: IC50 (µM)
// units = µM; emit number, no label

Examples with their reported IC50 follow.
[[record]]
smi = "C/C=C1/CN(C)[C@H]2Cc3c([nH]c4ccccc34)[C@H](c3c(OC)ccc4c5c([nH]c34)[C@]3(C(=O)OC)C[C@H]4C[C@H](CC)[C@@H]3N(CC5)C4)C[C@H]1[C@]2(CO)C(=O)OC"
property_label = "IC50"
quantitative_result = 4.1

[[record]]
smi = "CC[C@H]1C[C@@H]2C[C@@]3(C(=O)OC)c4[nH]c5c([C@@H]6C[C@H]7[C@@]8(C(=O)OC)CO[C@H](N(C)[C@H]8Cc8c6[nH]c6ccccc86)[C@@]76O[C@H]6C)c(OC)ccc5c4CCN([C@@H]2CC(C)=O)[C@@H]13"
property_label = "IC50"
quantitative_result = 6.6

[[record]]
smi = "C/C=C1/CN(C)[C@H]2Cc3c([nH]c4ccccc34)[C@H](c3c(OC)ccc4c5c([nH]c34)[C@]3(C(=O)OC)C[C@H]4C[C@H](CC)[C@@H]3N(CC5)[C@@H]4CO)C[C@H]1[C@]2(CO)C(=O)OC"
property_label = "IC50"
quantitative_result = 4.9


Find the recorded IC50 belonging to C/C=C1/CN2COC[C@]3(C(=O)OC)[C@@H]1C[C@@H](c1c(OC)ccc4c5c([nH]c14)[C@]1(C(=O)OC)C[C@H]4C[C@H](CC)[C@@H]1N(CC5)[C@@H]4CO)c1[nH]c4ccccc4c1C[C@H]23 and report it.
4.9
